// provenance: patent US20250161285A1

System: S. Typhimurium ATCC 14028 (JSG210) biofilms
METHOD SUMMARY: Biofilm inhibition assay (crystal violet staining)
Type: cell-based, Salmonella enterica serovar Typhimurium
CONDITION LABEL: 6a vs 4c; 6b vs 4d; 6g vs 4c and 4d; 8i vs 8b
REPORTED METRIC: fold improvement of IC50 versus comparator

INSERT INTO assay_data (smiles_string, result) VALUES
  ('CN(Cc1ccsc1)CC1CCN(CCc2ccc(F)c(F)c2)CC1', 'over two-fold'),
  ('CN(Cc1ccsc1)CC1CCN(CCc2cccc(Cl)c2)CC1', 'over two-fold');
